target: human CB2R (hCB2R) (Homo sapiens, UniProt P34972); assay: [3H]CP-55,940 competition displacement binding assay, hCB2R membranes; details: displacement of [3H]CP-55,940; value given in µM; read-out: Ki (nM) hCB2R
Sequence (P34972 whole entry): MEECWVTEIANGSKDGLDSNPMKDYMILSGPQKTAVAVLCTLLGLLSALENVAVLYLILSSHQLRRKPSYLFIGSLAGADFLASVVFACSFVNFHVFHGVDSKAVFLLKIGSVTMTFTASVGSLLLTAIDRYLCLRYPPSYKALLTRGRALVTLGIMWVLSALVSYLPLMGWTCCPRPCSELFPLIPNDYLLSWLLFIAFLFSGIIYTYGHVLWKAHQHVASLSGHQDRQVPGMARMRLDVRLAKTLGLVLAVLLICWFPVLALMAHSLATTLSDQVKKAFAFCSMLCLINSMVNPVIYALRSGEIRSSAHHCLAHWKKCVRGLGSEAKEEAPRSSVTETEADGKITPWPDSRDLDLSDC
Readout type: Ki

IN: What value of Ki has been reported for the following compound? COc1cc(C)cc(OC)c1C1(O)C2(C)CCC(C2)C1(C)C (stereo not shown)
OUT: > 10 µM

====

molecular target: UniProt P34972; test: [3H]CP-55,940 competition displacement binding assay, hCB2R membranes; conditions: displacement of [3H]CP-55,940; membranes of CHO-K1 cells expressing human CB2R; read-out: Ki (nM) hCB2R
Hi there, I'd appreciate the recorded Ki for every entry that follows.
Remember to quote the unit after the number.

IN: Data request, read-out Ki, for CCCCCCc1ccc(OC)c(C2(O)C3(C)CCC(C3)C2(C)C)c1OC (stereo not drawn) [Compound 2b]
OUT: 73.4 nM

IN: Consider the molecule shown here: CCCCCc1cc(OC)c(C2(O)C3(C)CCC(C3)C2(C)C)c(OC)c1 (stereo not drawn) [Compound 1b] What is its recorded Ki?
OUT: 14.4 nM

IN: GET /values?readout=Ki&item= CCCc1ccc(OC)c(C2(O)C3(C)CCC(C3)C2(C)C)c1 (stereo not drawn) [Compound 3a]
OUT: 1010 nM

IN: Would you mind telling me what Ki value was observed for CCCCCc1cc(OC)c(C2(O)C3(C)CCC(C3)C2(C)C)c(OC)c1F (stereo not drawn) [Compound 4a] ?
OUT: 155 nM

IN: What does the record list as Ki for CCCCCCC(C)(C)c1cc(OC)c(C2(O)C3(C)CCC(C3)C2(C)C)c(OC)c1 (stereo not drawn) [Compound 1c] ?
OUT: 56.8 nM

IN: Value lookup for Ki; key = CCCCCc1cc(OC)c(C2(O)C3(C)CCC(C3)C2(C)C)c(OC)c1 (stereo not drawn) [Compound 1a]
OUT: 47.7 nM

IN: What value of Ki has been recorded for this entry: CCCCCCC(C)(C)c1cc(OC)c(C2(O)C3(C)CCC(C3)C2(C)C)c(OC)c1F (stereo not drawn) [Compound 4c]
OUT: 438 nM

IN: Any idea what its Ki is? The molecule is COc1cc(C)cc(OC)c1C1(O)C2(C)CCC(C2)C1(C)C (stereo not drawn) [Compound 1f]
OUT: 233 nM

IN: Quick one: Ki for CCC(C)(C)c1ccc(OC)c(C2(O)C3(C)CCC(C3)C2(C)C)c1 (stereo not drawn) [Compound 3f] ?
OUT: 1450 nM

IN: Can you look up the measured Ki of CCCCCc1ccc(OC)c(C2(O)C3(C)CCC(C3)C2(C)C)c1 (stereo not drawn) [Compound 3c] for me?
OUT: 444 nM

IN: Recorded Ki for CCCCCc1cc(OC)c(C2(O)C3(C)CCC(C3)C2(C)C)c(OC)c1F (stereo not drawn) [Compound 4b] , please?
OUT: 28.3 nM

IN: Please look up its Ki: CCCCCc1cc(O)c(C2(O)C3(C)CCC(C3)C2(C)C)c(OC)c1 (stereo not drawn) [Compound 5b]
OUT: 36.5 nM

IN: Param item = CCCCCCC(C)(C)c1cc(O)c(C2(O)C3(C)CCC(C3)C2(C)C)c(OC)c1 (stereo not drawn) [Compound 5c] ; retrieve measured Ki.
OUT: 107 nM

IN: Requested read-out: Ki. Entry: CCCc1ccc(OC)c(C2(O)C3(C)CCC(C3)C2(C)C)c1 (stereo not drawn) [Compound 3b]
OUT: 610 nM

IN: Requested field: Ki. Item: CCC(C)(C)c1ccc(OC)c(C2(O)C3(C)CCC(C3)C2(C)C)c1 (stereo not drawn) [Compound 3e]
OUT: 2870 nM

IN: // Ki lookup, key: CCCCCc1ccc(OC)c(C2(O)C3(C)CCC(C3)C2(C)C)c1 (stereo not drawn) [Compound 3d]
OUT: 834 nM

IN: Ki lookup needed for CCCCCCC(C)(C)c1cc(OC)c(C2(O)C3(C)CCC(C3)C2(C)C)c(OC)c1F (stereo not drawn) [Compound 4d] , thanks.
OUT: 56.6 nM

IN: Need Ki, item CCCCCc1cc(O)c(C2(O)C3(C)CCC(C3)C2(C)C)c(OC)c1 (stereo not drawn) [Compound 5a]
OUT: 4980 nM
